# Tested on: H1299
# measurementNotes: Cellular proliferation assay (Alamar blue), H1299
# Format: cell-based
# assaySetup: Homo sapiens, NCI-H1299, H1299 cells; 10% FCS; 72 h with compound; Alamar blue 4 h; read-out: pIC50 H1299 (converted)
# Procedure: Cellular proliferation of these compounds was tested on a panel of different cell lines in the presence of 10% FCS serum (37° C. and 5% (v/v) CO2). In a first step these cells were seeded and incubated for 24 hours in the absence of compound. In the second step the cells were incubated for 72 hours with the compounds to be tested for 72 hours. The viable cell number was finally assessed in a standard Alamar blue cell viability assay. […]
Measured IC50 by item

Look over these answered cases.
structuresmilesstring=CN1CCCN(C)C(=O)COc2cc(cc(C(F)(F)F)c2)Nc2ncnc3[nH]cc(c23)C1 readout=IC50 measuredvalue="> 10 µM"
structuresmilesstring=COc1cc2cc(c1OC)OCCCC(=O)N(C)CCN(C)Cc1c[nH]c3ncnc(c13)N2 readout=IC50 measuredvalue="> 10 µM"
structuresmilesstring=CC(C)OCCOc1ccc2cc1OCC(=O)N(C)CCCN(C)Cc1c[nH]c3ncnc(c13)N2 readout=IC50 measuredvalue="0.1 µM"
structuresmilesstring=CCOCCOc1ccc2cc1OCC(=O)N(C)CCCN(C)Cc1c[nH]c3nc(C)nc(c13)N2 readout=IC50 measuredvalue="> 10 µM"
structuresmilesstring=CN1CCCN(C)C(=O)COc2cc(ccc2OCCNc2ncccn2)Nc2ncnc3[nH]cc(c23)C1 readout=IC50 measuredvalue="6.31 µM"

Prompt: API: value(readout=IC50, system=H1299) for record "COc1ccc2cc1OCC(=O)N[C@H](CO)CN(C)CCCc1c[nH]c3ncnc(c13)N2"
Completion: > 10 µM

The reported measurements were obtained from patent US8318731B2.
